Consider the following compounds and their measured HIS4 meiotic recombination assay sensitivity score readings.
- Tested on: S. cerevisiae NKY1551 his4x/his4B, sporulating;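 note: active if sensitivity score above 5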
- Assay details: HIS4 meiotic recombination assay sensitivity score (z-score vs DMSO controls); higher = stronger inhibition of sporulation/recombination, active = hit call of the paper
Counter-ions that a name gives are not always drawn.
Value type: HIS4 meiotic recombination assay sensitivity score

[[record]]
compound = "CN1C2CCCC1CC(NC(=O)c1nn(C)c3ccccc13)C2 (configuration not stated) [Granisetron hydrochloride] (stock concentration (mM, diluted 1:100): 9)"
target = "S. cerevisiae NKY1551 his4x/his4B, sporulating"
endpoint_value = "0.28 (inactive)"

[[record]]
compound = "CC(=O)OCC(CCn1cnc2cnc(N)nc21)COC(C)=O [Famciclovir] (stock concentration (mM, diluted 1:100): 10)"
target = "S. cerevisiae NKY1551 his4x/his4B, sporulating"
endpoint_value = "-0.43 (inactive)"

[[record]]
compound = "C=C1/C(=C\\C=C2/CCC[C@]3(C)[C@@H]([C@H](C)/C=C/[C@@H](O)C4CC4)CC[C@@H]23)C[C@@H](O)C[C@@H]1O [Calcipotriol] (stock concentration (mM, diluted 1:100): 10.1)"
target = "S. cerevisiae NKY1551 his4x/his4B, sporulating"
endpoint_value = "2.61 (inactive)"

[[record]]
compound = "O=[N+]([O-])c1cccc2cn[nH]c12 [7-Nitroindazole] (stock concentration (mM, diluted 1:100): 10)"
target = "S. cerevisiae NKY1551 his4x/his4B, sporulating"
endpoint_value = "-1.75 (inactive)"

[[record]]
compound = "CCC(=O)NS(=O)(=O)c1ccc(-c2c(-c3ccccc3)noc2C)cc1 [Parecoxib] (stock concentration (mM, diluted 1:100): 9.8)"
target = "S. cerevisiae NKY1551 his4x/his4B, sporulating"
endpoint_value = "0.05 (inactive)"

[[record]]
compound = "OCc1cccnc1 [3-Pyridinemethanol] (stock concentration (mM, diluted 1:100): 10)"
target = "S. cerevisiae NKY1551 his4x/his4B, sporulating"
endpoint_value = "0.73 (inactive)"

[[record]]
compound = "Cc1sc(N)c(C(=O)c2cccc(C(F)(F)F)c2)c1C (stock concentration (mM, diluted 1:100): 10)"
target = "S. cerevisiae NKY1551 his4x/his4B, sporulating"
endpoint_value = "1.22 (inactive)"

[[record]]
compound = "C[C@@H]1C[C@H]2[C@@H]3CCC4=CC(=O)C=C[C@]4(C)[C@@]3(F)[C@@H](O)C[C@]2(C)[C@H]1C(=O)CO [Desoximetasone] (stock concentration (mM, diluted 1:100): 10)"
target = "S. cerevisiae NKY1551 his4x/his4B, sporulating"
endpoint_value = "-1.12 (inactive)"

[[record]]
compound = "O=c1c(-c2ccccc2)c1-c1ccccc1 [Diphenylcyclopropenone] (stock concentration (mM, diluted 1:100): 10)"
target = "S. cerevisiae NKY1551 his4x/his4B, sporulating"
endpoint_value = "-0.87 (inactive)"

[[record]]
compound = "CN1CCN(C2=Nc3ccccc3Oc3ccc(Cl)cc32)CC1 [Loxapine succinate] (stock concentration (mM, diluted 1:100): 11)"
target = "S. cerevisiae NKY1551 his4x/his4B, sporulating"
endpoint_value = "7.41 (active)"

[[record]]
compound = "COc1cc(C(=O)NC2CCCNC2)cc(OC)c1OC (configuration not stated) [Troxipide] (stock concentration (mM, diluted 1:100): 10.1)"
target = "S. cerevisiae NKY1551 his4x/his4B, sporulating"
endpoint_value = "-0.27 (inactive)"

[[record]]
compound = "CCCc1nc2c(C)cc(-c3nc4ccccc4n3C)cc2n1Cc1ccc(-c2ccccc2C(=O)O)cc1 [Telmisartan] (stock concentration (mM, diluted 1:100): 10)"
target = "S. cerevisiae NKY1551 his4x/his4B, sporulating"
endpoint_value = "-1.16 (inactive)"


* * *

- System: S. cerevisiae SK1 pCDA2-eGFP (USY613), sporulating;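 note: active if sensitivity score above 5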
- Assay details: CDA2-GFP sporulation assay sensitivity score (z-score vs DMSO controls); higher = stronger inhibition of sporulation, active = hit call of the paper
Structures can show the parent of a compound that is named as a salt.
Classes used: active, inactive

[[record]]
compound = "c1cnc(N2CCN(Cc3ccc4c(c3)OCO4)CC2)nc1 [Piribedil] (stock concentration (mM, diluted 1:100): 9.7)"
label_value = "inactive"

[[record]]
compound = "O=C(c1ccccc1)c1ccc2n1CCC2C(=O)O (configuration not stated) [Toradol] (stock concentration (mM, diluted 1:100): 6.8)"
label_value = "inactive"

[[record]]
compound = "Nc1nc(Cl)nc2c1ncn2[C@@H]1O[C@H](CO)[C@@H](O)[C@H]1O [2-Chloroadenosine] (stock concentration (mM, diluted 1:100): 10)"
label_value = "inactive"

[[record]]
compound = "Cc1ncc([N+](=O)[O-])n1CC(O)CCl (configuration not stated) [Ornidazole] (stock concentration (mM, diluted 1:100): 10)"
label_value = "inactive"

[[record]]
compound = "COc1cccc2c1C(=O)c1c(O)c3c(c(O)c1C2=O)C[C@@](O)(C(=O)CO)C[C@@H]3O[C@H]1C[C@H](N)[C@H](O)[C@H](C)O1 [Doxorubicin hydrochloride] (stock concentration (mM, diluted 1:100): 9.4)"
label_value = "inactive"

[[record]]
compound = "CC(C)NCC(O)COc1ccc(COCCOC(C)C)cc1 (configuration not stated) [Bisoprolol fumarate] (stock concentration (mM, diluted 1:100): 8.5)"
label_value = "inactive"

[[record]]
compound = "CC[C@H](C)C(=O)O[C@H]1CCC=C2C=C[C@H](C)[C@H](CC[C@@H]3C[C@@H](O)CC(=O)O3)[C@H]21 [Mevastatin] (stock concentration (mM, diluted 1:100): 10)"
label_value = "inactive"

[[record]]
compound = "O=C(O)CCc1nc(-c2ccccc2)c(-c2ccccc2)o1 [Oxaprozin] (stock concentration (mM, diluted 1:100): 10)"
label_value = "inactive"

[[record]]
compound = "NC(N)=Nc1nc(CSCC/C(N)=N/S(N)(=O)=O)cs1 [Famotidine] (stock concentration (mM, diluted 1:100): 10)"
label_value = "inactive"

[[record]]
compound = "CC(=O)OCC(CCn1cnc2cnc(N)nc21)COC(C)=O [Famciclovir] (stock concentration (mM, diluted 1:100): 10)"
label_value = "inactive"

[[record]]
compound = "CCOC(=O)c1ncn2c1CN(C)C(=O)c1cc(F)ccc1-2 [Flumazenil] (stock concentration (mM, diluted 1:100): 10)"
label_value = "inactive"

[[record]]
compound = "NC1CCN(c2cccc(Cl)n2)CC1 (stock concentration (mM, diluted 1:100): 10)"
label_value = "active"


* * *

- System: S. cerevisiae NKY1551 his4x/his4B, sporulating;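 note: active if sensitivity score above 5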
- Assay details: HIS4 meiotic recombination assay sensitivity score (z-score vs DMSO controls); higher = stronger inhibition of sporulation/recombination, active = hit call of the paper
Classes used: 1 (yes) (active), 0 (no) (inactive)

[[record]]
compound = "C[C@]12CC[C@@H]3c4ccc(O)cc4CC[C@H]3[C@@H]1CC[C@@H]2O [Beta-Estradiol] (stock concentration (mM, diluted 1:100): 10)"
label_value = "0 (no)"

[[record]]
compound = "CC(=O)[C@@]1(O)CC[C@H]2[C@@H]3C[C@H](C)C4=CC(=O)CC[C@]4(C)[C@H]3CC[C@@]21C [Medroxyprogesterone] (stock concentration (mM, diluted 1:100): 10)"
label_value = "0 (no)"

[[record]]
compound = "Nc1nc2ccc(OC(F)(F)F)cc2s1 [Riluzole] (stock concentration (mM, diluted 1:100): 9.9)"
label_value = "1 (yes)"

[[record]]
compound = "Cc1ncc([N+](=O)[O-])n1CC(C)O (stereo unspecified) [Secnidazole] (stock concentration (mM, diluted 1:100): 10)"
label_value = "0 (no)"

[[record]]
compound = "CC[C@H](C)C(=O)O[C@H]1CCC=C2C=C[C@H](C)[C@H](CC[C@@H]3C[C@@H](O)CC(=O)O3)[C@H]21 [Mevastatin] (stock concentration (mM, diluted 1:100): 10)"
label_value = "0 (no)"

[[record]]
compound = "CC(=O)O[C@]1(C(C)=O)CC[C@H]2[C@@H]3C=C(C)C4=CC(=O)CC[C@]4(C)[C@H]3CC[C@@]21C [Megestrol acetate] (stock concentration (mM, diluted 1:100): 10)"
label_value = "0 (no)"


* * *

- System: S. cerevisiae NKY1551 his4x/his4B, sporulating;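 note: active if sensitivity score above 5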
- Assay details: HIS4 meiotic recombination assay sensitivity score (z-score vs DMSO controls); higher = stronger inhibition of sporulation/recombination, active = hit call of the paper
Structures can show the parent of a compound that is named as a salt.
Note to self: values exactly at -0.7 are t. So HIS4 meiotic recombination assay sensitivity score at or above -0.7 is t, below is f.

[[record]]
molecule = "NC(=O)c1cccnc1 [Nicotinamide] (stock concentration (mM, diluted 1:100): 10)"
target = "S. cerevisiae NKY1551 his4x/his4B, sporulating"
label_value = "t"

[[record]]
molecule = "CCOC(=O)N1CCC(=C2c3ccc(Cl)cc3CCc3cccnc32)CC1 [Loratadine] (stock concentration (mM, diluted 1:100): 10)"
target = "S. cerevisiae NKY1551 his4x/his4B, sporulating"
label_value = "f"

[[record]]
molecule = "CC1=C(C(=O)O)N2C(=O)[C@@H](NC(=O)[C@H](N)c3ccccc3)[C@H]2SC1 [Cephalexin monohydrate] (stock concentration (mM, diluted 1:100): 10)"
target = "S. cerevisiae NKY1551 his4x/his4B, sporulating"
label_value = "f"

[[record]]
molecule = "CCCCc1nc(Cl)c(CO)n1Cc1ccc(-c2ccccc2-c2nnn[nH]2)cc1 [Losartan potassium] (stock concentration (mM, diluted 1:100): 9.2)"
target = "S. cerevisiae NKY1551 his4x/his4B, sporulating"
label_value = "f"

[[record]]
molecule = "Cc1onc(-c2ccccc2)c1-c1ccc(S(N)(=O)=O)cc1 [Valdecoxib] (stock concentration (mM, diluted 1:100): 10)"
target = "S. cerevisiae NKY1551 his4x/his4B, sporulating"
label_value = "f"

[[record]]
molecule = "O=C(O)CCNC(=O)c1ccc(/N=N/c2ccc(O)c(C(=O)O)c2)cc1 [Balsalazide] (stock concentration (mM, diluted 1:100): 10)"
target = "S. cerevisiae NKY1551 his4x/his4B, sporulating"
label_value = "f"

[[record]]
molecule = "CN(C)CCCSc1ccccc1NC(=O)/C=C/c1ccccc1 [Cinanserin] (stock concentration (mM, diluted 1:100): 10)"
target = "S. cerevisiae NKY1551 his4x/his4B, sporulating"
label_value = "t"

[[record]]
molecule = "CCOC(=O)[C@H](CCc1ccccc1)N[C@H]1CCc2ccccc2N(CC(=O)O)C1=O [Benazepril hydrochloride] (stock concentration (mM, diluted 1:100): 9.2)"
target = "S. cerevisiae NKY1551 his4x/his4B, sporulating"
label_value = "t"

[[record]]
molecule = "O=c1[nH]c(=O)n(C2CCCO2)cc1F (configuration not stated) [Ftorafur] (stock concentration (mM, diluted 1:100): 10)"
target = "S. cerevisiae NKY1551 his4x/his4B, sporulating"
label_value = "t"

[[record]]
molecule = "CN1C(=O)CC[C@H]1c1cccnc1 [Cotinine] (stock concentration (mM, diluted 1:100): 10)"
target = "S. cerevisiae NKY1551 his4x/his4B, sporulating"
label_value = "f"

[[record]]
molecule = "CN1[C@@H](CC(=O)c2ccccc2)CCC[C@H]1C[C@H](O)c1ccccc1 [Lobeline hydrochloride] (stock concentration (mM, diluted 1:100): 10)"
target = "S. cerevisiae NKY1551 his4x/his4B, sporulating"
label_value = "t"

